What protein stability index was measured for each of the following?
# Tested on: Saccharomyces cerevisiae
# Experiment notes: protein stability index of tFT-peptide fusion (C-terminal peptide) (PSI (0-1 scale)); higher = more stable (slower turnover)
# Measurement context: genetic background: cdc34-1; temperature: 37 C
One number for each entry.

INSERT INTO results (input_sequence, assay_value) VALUES
  ('PLHPSSTPATPF', 0.69),
  ('ARSGGYLMVVLV', 0.56),
  ('SFVGCWFVLLVR', 0.0307),
  ('LCSYSTIPLRLY', 0.619),
  ('RALSLPPLLLVL', 0.386);

I have 7 sequences here; please give me protein stability index for each one.
1. WCCVFVARFFWL
2. APPLPFPTPPPS
3. ALVWYSLSIIVN
4. FGCLFILRCSFL
5. GGGGGGRWGRLC
6. DILQITNIKQKR
7. VLLMFFFRFSAL

Result:
0.416
0.68
0.0193
0.429
0.634
0.71
0.589

I have 2 sequences here; please give me protein stability index for each one.
1. LRFFLPFLLSLP
2. VFVGWVLCVVGG

Result:
1. 0.519
2. 0.0458

Ask: What does the record list as protein stability index for `LCWASLLIVYLP` ?
Result: 0.397

---

# Tested on: Saccharomyces cerevisiae
# Experiment notes: protein stability index of tFT-peptide fusion (C-terminal peptide) (PSI (0-1 scale)); higher = more stable (slower turnover)
# Measurement context: genetic background: wild type; temperature: 30 C
// label = yes if protein stability index is not less than 0.7, otherwise no

Please review the following examples before continuing.
INSERT INTO measurements (input_sequence, class_name) VALUES
  ('PAAISGTVPSIF [DIN7 C-terminal 12 aa]', 'no'),
  ('ACELLFENNIDM [PHO81 C-terminal 12 aa]', 'yes'),
  ('YAGHRFHDGNKL [ERR1 C-terminal 12 aa]', 'yes'),
  ('SVVSQPPPGYEQ [HSE1 C-terminal 12 aa]', 'no'),
  ('RFRVVLGDSDDE [PSH1 C-terminal 12 aa]', 'yes'),
  ('ISTLKAIYNKMD [PEX9 C-terminal 12 aa]', 'no');

Ask: In plain terms: is recorded protein stability index at least 0.7 for RNSGEKLVAVLK [YNL134C C-terminal 12 aa] ?
Result: no

Ask: In plain terms: is recorded protein stability index at least 0.7 for SSTDMNGQPIEF [SKA1 C-terminal 12 aa] ?
Result: no

Ask: In plain terms: is recorded protein stability index at least 0.7 for ERYTSIESEIVV [APE4 C-terminal 12 aa] ?
Result: no

---

# System: Saccharomyces cerevisiae
# Experiment notes: protein stability index of tFT-peptide fusion (C-terminal peptide) (PSI (0-1 scale)); higher = more stable (slower turnover)
# Measurement context: genetic background: das1 deletion; temperature: 30 C
// label = True if protein stability index is not less than 0.7, otherwise False

Please review the following examples before continuing.
INSERT INTO results (input_sequence, class_name) VALUES
  ('RLRKWLSTFVHQ [YNL034W C-terminal 12 aa]', 'True'),
  ('AGSRRLDFRFYH [YOL162W C-terminal 12 aa]', 'False'),
  ('MTGTCFMTDLAP [YKL097C C-terminal 12 aa]', 'True');

Turning now to a further sequence:
Ask: In plain terms: is recorded protein stability index at least 0.7 for EEHHFYREHIFT [OCA4 C-terminal 12 aa] ?
Result: True

---

# System: Saccharomyces cerevisiae
# Experiment notes: protein stability index of tFT-peptide fusion (C-terminal peptide) (PSI (0-1 scale)); higher = more stable (slower turnover)
# Measurement context: genetic background: doa10 deletion; temperature: 30 C
What protein stability index was measured for each of the following?
Answers are plain numbers.

Recorded protein stability index, per entry:
INSERT INTO measurements (input_sequence, assay_value) VALUES
  ('RSSGHLLDGRAF', 0.631),
  ('DVHPLFYCIPVY', 0.0881),
  ('FLSLSFLLLHFP', 0.543),
  ('YVDSGLTLIHLA', 0.171),
  ('SPLLPPPLLFLS', 0.147);

I have 8 sequences here; please give me protein stability index for each one.
1. LGLLIFQWARVL
2. LVCLPVGFFLMW
3. LPTGLKTFLIAF
4. LSRFGSTCPSGL
5. CVFVRCVDCMSG
6. FVVHPARYYLVL
7. LPLCGLLLFLFF
8. VFFLVHFHLPMF

Result:
1. 0.0666
2. 0.388
3. 0.374
4. 0.636
5. 0.354
6. 0.355
7. 0.42
8. 0.394

---

# Test system: Saccharomyces cerevisiae
# Experiment notes: protein stability index of tFT-peptide fusion (C-terminal peptide) (PSI (0-1 scale)); higher = more stable (slower turnover)
# Measurement context: genetic background: wild type; temperature: 30 C
What protein stability index was measured for each of the following?
Give bare numbers.

Recorded protein stability index, per entry:
INSERT INTO measurements (input_sequence, measurement_name, assay_value) VALUES
  ('PPASPRSPIVSR', 'protein stability index', 0.723),
  ('WIYKIVTYEKKS', 'protein stability index', 0.145),
  ('KKGPANEWKRGE', 'protein stability index', 0.685),
  ('PASRNWGLNPDT', 'protein stability index', 0.677),
  ('QLETAIEEKNNE', 'protein stability index', 0.704);

I have 8 sequences here; please give me protein stability index for each one.
1. IKIRIAANRTKY
2. PAPPPPPPRPPP
3. NNEKIEQRYSMK
4. LPSSFLPVPAPP
5. YVSIWSPILWLA
6. CFCPILFPRCLA
7. CRLANEIMYDKN
8. VERRTDRNLGSV

Result:
1: 0.638; 2: 0.669; 3: 0.711; 4: 0.698; 5: 0.117; 6: 0.25; 7: 0.685; 8: 0.645

---

What protein stability index was measured for each of the following?
# System: Saccharomyces cerevisiae
# Experiment notes: protein stability index of tFT-peptide fusion (C-terminal peptide) (PSI (0-1 scale)); higher = more stable (slower turnover)
# Measurement context: genetic background: cdc53-1; temperature: 37 C

Recorded protein stability index, per entry:
INSERT INTO measurements (input_sequence, assay_value) VALUES
  ('VQFISLVCLFRF', 0.361),
  ('WCAVRVWFGAAL', 0.676),
  ('VSPATFLFYFFF', 0.688),
  ('YSRFALRPQLLV', 0.634),
  ('YCAAVCFWGLYC', 0.654);

I have 4 sequences here; please give me protein stability index for each one.
1. RCSLRLRFIFVR
2. WLGLFAFRRCLV
3. YLVSFVAFLRLF
4. PPSRVSIRLLIR

Result:
[0.0507, 0.583, 0.446, 0.473]

---

# System: Saccharomyces cerevisiae
# Experiment notes: protein stability index of tFT-peptide fusion (C-terminal peptide) (PSI (0-1 scale)); higher = more stable (slower turnover)
# Measurement context: genetic background: wild type; temperature: 30 C
What protein stability index was measured for each of the following?
Answers are plain numbers.

Recorded protein stability index, per entry:
INSERT INTO measurements (input_sequence, measurement_name, assay_value) VALUES
  ('AVGGWRAGGGGG', 'protein stability index', 0.731),
  ('YEGVNLSWYRIR', 'protein stability index', 0.676);

Here is another sequence to look at.
Ask: What does the record list as protein stability index for `GTRAGNPDRQRS` ?
Result: 0.706

---

# Test system: Saccharomyces cerevisiae
# Experiment notes: protein stability index of tFT-peptide fusion (C-terminal peptide) (PSI (0-1 scale)); higher = more stable (slower turnover)
# Measurement context: genetic background: wild type; temperature: 30 C
// label = yes if protein stability index is not less than 0.7, otherwise no

Ask: In plain terms: is recorded protein stability index at least 0.7 for `RRRSGAPVMRGS` ?
Result: no

---

# Tested on: Saccharomyces cerevisiae
# Experiment notes: protein stability index of tFT-peptide fusion (C-terminal peptide) (PSI (0-1 scale)); higher = more stable (slower turnover)
# Measurement context: genetic background: cdc53-1; temperature: 37 C
// label = y if protein stability index is not less than 0.6, otherwise n

INSERT INTO measurements (input_sequence, class_name) VALUES
  ('VFCSVGVSLFFG', 'n');

Ask: In plain terms: is recorded protein stability index at least 0.6 for `PHHSPPTGPPND` ?
Result: y

Ask: In plain terms: is recorded protein stability index at least 0.6 for `ALVWYSLSIIVN` ?
Result: n

Ask: In plain terms: is recorded protein stability index at least 0.6 for `VSFRISAIFVCV` ?
Result: n

Ask: In plain terms: is recorded protein stability index at least 0.6 for `LVCSRFLFAFHC` ?
Result: y

Ask: In plain terms: is recorded protein stability index at least 0.6 for `VWYSCWSFLVLF` ?
Result: n
